Reported GI50 is given for each of the following compounds.
- TEST PROTOCOL: Antiproliferative activity against human U373 cells assessed as reduction in cell viability after 72 hrs by MTT assay
- Assay type: functional, U-373MG ATCC
- TEST PARAMETERS: U373 MG
Answer by giving the amount and then stating its unit.

Completed entries (count: 2):
// sample N#CC1=C(N)OC2=C(C(=O)c3ccccc3C2=O)C1c1cccc(Oc2ccccc2)c1 (centres undefined) , its GI50 was 3.4 µM

Field GI50 (entry CC1(C)CCC2=C(O1)C(=O)c1ccccc1C2=O ) reads 23.1 µM

New cases:
Record N#CC1=C(N)OC2=C(C(=O)c3ccccc3C2=O)C1c1c(Cl)cccc1Cl (centres undefined) . Reported GI50: 12.8 µM

Looking up CC1(C)CCC2=C(O1)c1ccccc1C(=O)C2=O , I see its GI50 listed as 0.4 µM

These measurements were taken from ChEMBL document CHEMBL2057125.
